Experiment: Cytotoxicity against human GR-M cells measured after 8 days
Format: functional, cell-based
Conditions: 192 h
pIC50: −log10 of the molar value.

compound.string	pIC50
C/C=C/Cn1cc(-c2ccc(C(C)(C)O)cc2OC)c2cc[nH]c2c1=O	4.70
C/C=C/Cn1cc(-c2ccc(C(=O)N3CCOCC3)cc2)c2cc[nH]c2c1=O	4.70

====

Assay: Cytotoxicity against human KLM-1 cells measured after 8 days
Format: functional, cell-based
Conditions: KLM1, 192 h
experimental.endpoint: IC50

compound.string	result
C/C=C/Cn1cc(-c2ccc(C(=O)N3CCOCC3)cc2)c2cc[nH]c2c1=O	20 µM
C/C=C/Cn1cc(-c2ccc(C(C)(C)O)cc2OC)c2cc[nH]c2c1=O	20 µM

====

Target: Transcription initiation factor TFIID subunit 1-like (Homo sapiens, UniProt Q8IZX4)
Sequence (Q8IZX4 whole entry, the tested form may be a part): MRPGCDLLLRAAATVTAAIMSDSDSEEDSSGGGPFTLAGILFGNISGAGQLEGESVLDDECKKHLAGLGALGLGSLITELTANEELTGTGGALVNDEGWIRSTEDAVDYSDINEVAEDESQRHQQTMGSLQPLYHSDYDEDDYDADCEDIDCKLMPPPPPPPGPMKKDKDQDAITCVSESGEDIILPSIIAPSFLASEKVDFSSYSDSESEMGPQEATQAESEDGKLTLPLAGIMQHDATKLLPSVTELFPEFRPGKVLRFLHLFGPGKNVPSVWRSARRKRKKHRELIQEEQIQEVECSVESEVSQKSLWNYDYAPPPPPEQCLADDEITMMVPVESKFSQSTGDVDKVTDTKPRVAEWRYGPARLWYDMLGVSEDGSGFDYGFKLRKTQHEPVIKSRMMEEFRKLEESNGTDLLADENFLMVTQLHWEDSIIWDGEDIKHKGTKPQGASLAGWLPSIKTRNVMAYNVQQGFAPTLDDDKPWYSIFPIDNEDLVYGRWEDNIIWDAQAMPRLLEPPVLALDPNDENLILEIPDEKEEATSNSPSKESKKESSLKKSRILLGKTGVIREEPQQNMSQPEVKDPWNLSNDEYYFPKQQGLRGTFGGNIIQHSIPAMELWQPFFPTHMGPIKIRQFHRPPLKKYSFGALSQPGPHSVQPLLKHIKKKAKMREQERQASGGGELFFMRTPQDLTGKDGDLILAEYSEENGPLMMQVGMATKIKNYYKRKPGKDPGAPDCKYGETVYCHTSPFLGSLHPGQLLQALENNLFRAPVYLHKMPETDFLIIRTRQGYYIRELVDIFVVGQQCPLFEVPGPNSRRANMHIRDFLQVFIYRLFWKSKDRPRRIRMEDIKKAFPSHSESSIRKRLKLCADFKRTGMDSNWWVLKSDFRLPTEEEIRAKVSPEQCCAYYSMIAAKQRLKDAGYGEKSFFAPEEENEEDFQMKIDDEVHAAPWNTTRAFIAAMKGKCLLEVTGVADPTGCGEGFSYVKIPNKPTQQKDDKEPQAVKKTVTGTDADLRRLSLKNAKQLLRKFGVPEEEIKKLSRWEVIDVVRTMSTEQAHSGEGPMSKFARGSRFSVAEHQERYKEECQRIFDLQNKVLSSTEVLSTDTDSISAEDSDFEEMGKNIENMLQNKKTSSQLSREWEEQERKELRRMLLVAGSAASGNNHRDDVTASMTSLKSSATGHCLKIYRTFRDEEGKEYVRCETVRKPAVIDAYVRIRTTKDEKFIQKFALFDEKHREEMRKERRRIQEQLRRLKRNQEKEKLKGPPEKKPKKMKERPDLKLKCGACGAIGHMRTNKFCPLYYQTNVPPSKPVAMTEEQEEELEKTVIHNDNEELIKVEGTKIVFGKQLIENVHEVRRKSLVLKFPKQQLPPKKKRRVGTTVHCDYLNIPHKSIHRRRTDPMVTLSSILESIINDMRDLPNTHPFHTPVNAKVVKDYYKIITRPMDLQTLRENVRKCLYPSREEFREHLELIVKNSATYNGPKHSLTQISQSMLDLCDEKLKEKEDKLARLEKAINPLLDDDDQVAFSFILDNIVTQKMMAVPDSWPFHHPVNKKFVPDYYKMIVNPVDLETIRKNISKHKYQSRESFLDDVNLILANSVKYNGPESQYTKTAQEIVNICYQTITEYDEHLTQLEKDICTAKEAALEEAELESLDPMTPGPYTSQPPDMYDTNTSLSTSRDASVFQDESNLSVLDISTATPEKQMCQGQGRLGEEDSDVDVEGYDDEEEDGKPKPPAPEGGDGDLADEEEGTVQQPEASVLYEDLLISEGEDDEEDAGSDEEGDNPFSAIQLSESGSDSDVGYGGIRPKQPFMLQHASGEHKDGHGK
Assay: Binding affinity to human partial length TAF1L bromodomain 2 (Q1523 to D1654 residues) expressed in bacterial expression system by BROMOscan assay
experimental.endpoint: Kd

compound.string	experimental.endpoint	result
C/C=C/Cn1cc(-c2ccc(C(C)(C)O)cc2OC)c2cc[nH]c2c1=O	Kd	> 10 µM
C/C=C/Cn1cc(-c2cc(OC)c(C(C)(C)O)cc2OC)c2cc(C)[nH]c2c1=O	Kd	> 10 µM
C/C=C/Cn1cc(-c2cc(OC)c(C(=O)N3CCOCC3)cc2OC)c2cc(C)[nH]c2c1=O	Kd	> 10 µM
C/C=C/Cn1cc(-c2ccc(C(=O)N3CCOCC3)cc2)c2cc[nH]c2c1=O	Kd	0.61 µM

====

Experiment: Cytotoxicity against human T.T cells measured after 8 days
Assay type: functional, cell-based
Details: TT, 192 h
pIC50: −log10 of the molar value.

compound.string	pIC50
C/C=C/Cn1cc(-c2ccc(C(C)(C)O)cc2OC)c2cc[nH]c2c1=O	4.70
C/C=C/Cn1cc(-c2ccc(C(=O)N3CCOCC3)cc2)c2cc[nH]c2c1=O	4.70

====

Experiment: Cytotoxicity against human KPP14449 cells measured after 8 days
Assay type: functional, cell-based
Conditions: KPP14449, 192 h
Here, each record is paired with measured IC50 data.

compound.string	result.units	IC50
C/C=C/Cn1cc(-c2ccc(C(=O)N3CCOCC3)cc2)c2cc[nH]c2c1=O	µM	20
C/C=C/Cn1cc(-c2ccc(C(C)(C)O)cc2OC)c2cc[nH]c2c1=O	µM	20

====

Assay: Cytotoxicity against human C32TG cells measured after 8 days
Type: functional, cell-based
Settings: 192 h
Listed here: items and their measured IC50.

compound.string	IC50, µM
C/C=C/Cn1cc(-c2ccc(C(=O)N3CCOCC3)cc2)c2cc[nH]c2c1=O	20
C/C=C/Cn1cc(-c2ccc(C(C)(C)O)cc2OC)c2cc[nH]c2c1=O	20

====

Assay: Cytotoxicity against human UCSD-242L cells measured after 8 days
Format: functional, cell-based
Details: 192 h
pIC50: −log10 of the molar value.

compound.string	pIC50
C/C=C/Cn1cc(-c2ccc(C(C)(C)O)cc2OC)c2cc[nH]c2c1=O	4.70
C/C=C/Cn1cc(-c2ccc(C(=O)N3CCOCC3)cc2)c2cc[nH]c2c1=O	4.70

====

Assay: Cytotoxicity against human Karpas-620 cells measured after 8 days
Format: functional, cell-based
Conditions: Karpas-620, 192 h
pIC50: −log10 of the molar value.
Reported values of pIC50 for individual entries
experimental.endpoint: pIC50

compound.string	experimental.endpoint	measured.number
C/C=C/Cn1cc(-c2ccc(C(C)(C)O)cc2OC)c2cc[nH]c2c1=O	pIC50	4.70
C/C=C/Cn1cc(-c2ccc(C(=O)N3CCOCC3)cc2)c2cc[nH]c2c1=O	pIC50	4.70
